# System: Cryptococcus neoformans
# Method: Antifungal activity against Cryptococcus neoformans H99 assessed as inhibition of fungal growth incubated for 72 hrs by CLSI protocol based microbroth dilution method
# Type: functional
Reported property: MIC50 (µg/mL)
Numbers only, in µg/mL.

Completed entries (count: 5):
{"Compound": "C[C@@H](n1cnc2cc(OC(F)(F)F)ccc2c1=O)[C@](O)(Cn1cnnn1)c1ccc(F)cc1F", "Target system": "Cryptococcus neoformans", "MIC50 / µg/mL": 0.125}
{"Compound": "C[C@@H](n1ccc2ccccc2c1=O)[C@](O)(Cn1cncn1)c1ccc(F)cc1F", "Target system": "Cryptococcus neoformans", "MIC50 / µg/mL": 0.016}
{"Compound": "C[C@@H](n1ncc2cn(-c3ccc(F)cc3)nc2c1=O)[C@](O)(Cn1cncn1)c1ccc(F)cc1F", "Target system": "Cryptococcus neoformans", "MIC50 / µg/mL": 2}
{"Compound": "C[C@@H](n1ccc2cc(F)ccc2c1=O)[C@](O)(Cn1cnnn1)c1ccc(F)cc1F", "Target system": "Cryptococcus neoformans", "MIC50 / µg/mL": 0.016}
{"Compound": "C[C@@H](n1ncc2cn(-c3ccc(C(F)(F)F)cc3)nc2c1=O)[C@](O)(Cn1cncn1)c1ccc(F)cc1F", "Target system": "Cryptococcus neoformans", "MIC50 / µg/mL": 1}

// input: 2 compounds below; output: MIC50 for each
1. CC[C@@H]([C@H](C)O)n1ncn(-c2ccc(N3CCN(c4ccc(OC[C@@H]5CO[C@@](Cn6cncn6)(c6ccc(F)cc6F)C5)cc4)CC3)cc2)c1=O [POSACONAZOLE]
2. C[C@@H](n1cnc2cc(C(F)(F)F)ccc2c1=O)[C@](O)(Cn1cnnn1)c1ccc(F)cc1F

# output
0.063
4

###

# Target system: Cytochrome P450 2C9 (Homo sapiens, UniProt P11712)
# Sequence (P11712 whole entry): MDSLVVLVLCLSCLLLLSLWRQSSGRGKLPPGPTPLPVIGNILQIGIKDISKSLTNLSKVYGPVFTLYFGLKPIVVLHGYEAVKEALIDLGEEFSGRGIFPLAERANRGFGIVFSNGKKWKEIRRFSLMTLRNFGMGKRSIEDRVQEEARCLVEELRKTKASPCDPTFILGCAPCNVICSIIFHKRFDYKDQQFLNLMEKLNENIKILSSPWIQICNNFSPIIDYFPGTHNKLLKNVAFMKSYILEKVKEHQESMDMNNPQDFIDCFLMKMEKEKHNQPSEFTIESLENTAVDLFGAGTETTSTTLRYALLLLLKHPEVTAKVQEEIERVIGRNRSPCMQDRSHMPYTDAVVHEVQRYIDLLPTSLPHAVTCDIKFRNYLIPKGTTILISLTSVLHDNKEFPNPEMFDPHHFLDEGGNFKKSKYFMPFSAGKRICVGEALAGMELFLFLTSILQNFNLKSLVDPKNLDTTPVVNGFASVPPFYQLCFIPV
Reported property: IC50 (µM)
Give bare numbers, in µM.

# input Query (compound): C[C@@H](n1cnc2cc(Cl)ccc2c1=O)[C@](O)(Cn1cncn1)c1ccc(F)cc1F ; field requested: IC50
# output 10.4

###

# Method: Hemolytic activity in rabbit RBC assessed as hemolysis at 4 ug/ml incubated for 1 hrs by absorbance based assay relative to control
# Format: toxicity, cell-based, Oryctolagus cuniculus, Erythrocyte
# Condition label: rabbit red blood cells, at 4 µg/mL, read-out: Activity
Reported property: hemolysis at 1 h, 4 ug/ml

# input Query (compound): C[C@@H]1[C@H](O)[C@@H](C)/C=C/C=C/C=C/C=C/C=C/C=C/C=C/[C@H](O[C@@H]2O[C@H](C)[C@@H](O)[C@H](N)[C@@H]2O)C[C@@H]2O[C@](O)(C[C@@H](O)C[C@@H](O)[C@H](O)CC[C@@H](O)C[C@@H](O)CC(=O)O[C@H]1C)C[C@H](O)[C@H]2C(=O)O [AMPHOTERICIN B] ; field requested: hemolysis at 1 h, 4 ug/ml
# output > 50%

###

# Method: Half-life in male ICR (CD-1) mouse at 10 mg/kg, po by LC-MS/MS analysis
# Format: ADME, organism-based
# Condition label: in vivo
Reported property: half-life (h)
Numbers only, in h.

# input Query (compound): C[C@@H](n1ccc2cc(Cl)ccc2c1=O)[C@](O)(Cn1cnnn1)c1ccc(F)cc1F ; field requested: half-life
# output 6.71

###

# Test system: Candida parapsilosis
# Method: Antifungal activity against Candida parapsilosis 22019 assessed as inhibition of fungal growth incubated for 24 hrs by CLSI protocol based microbroth dilution method
# Type: functional
# Condition label: Lodderomyces parapsilosis
Reported property: MIC50

Completed entries (count: 5):
{"Compound": "C[C@@H](n1ccc2cc(F)ccc2c1=O)[C@](O)(Cn1cncn1)c1ccc(F)cc1F", "Reported property": "MIC50", "Result": "< 8 ng/mL"}
{"Compound": "C[C@@H](n1ccc2cc(Cl)ccc2c1=O)[C@](O)(Cn1cncn1)c1cc(F)ccc1F", "Reported property": "MIC50", "Result": "< 8 ng/mL"}
{"Compound": "C[C@@H](n1ncc2cc(Cl)ccc2c1=O)[C@](O)(Cn1cncn1)c1ccc(F)cc1F", "Reported property": "MIC50", "Result": "< 8 ng/mL"}
{"Compound": "C[C@@H](n1cnc2cc(Cl)ccc2c1=O)[C@](O)(Cn1cncn1)c1ccc(F)cc1F", "Reported property": "MIC50", "Result": "< 8 ng/mL"}
{"Compound": "C[C@@H](n1ccc2cc(OC(F)(F)F)ccc2c1=O)[C@](O)(Cn1cncn1)c1ccc(F)cc1F", "Reported property": "MIC50", "Result": "< 8 ng/mL"}

// input: 6 molecules below; output: MIC50 for each
1. C[C@@H](n1ncc2cn(-c3ccc(Cl)cc3)nc2c1=O)[C@](O)(Cn1cncn1)c1ccc(F)cc1F
2. COc1ccc2c(=O)n([C@H](C)[C@](O)(Cn3cncn3)c3ccc(F)cc3F)ccc2c1
3. C[C@@H](n1ncc2cn(-c3ccccc3)nc2c1=O)[C@](O)(Cn1cncn1)c1ccc(F)cc1F
4. C[C@@H](n1ccc2cc(Cl)ccc2c1=O)[C@](O)(Cn1cnnn1)c1ccc(F)cc1F
5. C[C@@H](n1ncc2cn(-c3ccc(Cl)c(Cl)c3)nc2c1=O)[C@](O)(Cn1cncn1)c1ccc(F)cc1F
6. C[C@@H](n1ncc2cc(Cl)ccc2c1=O)[C@](O)(Cn1cncn1)c1cc(F)ccc1F

# output
1. 1000 ng/mL
2. < 8 ng/mL
3. 1000 ng/mL
4. < 8 ng/mL
5. 250 ng/mL
6. < 8 ng/mL

// input: 2 molecules below; output: MIC50 for each
1. C[C@@H](n1ncc2cn(-c3ccc(F)c(F)c3)nc2c1=O)[C@](O)(Cn1cncn1)c1ccc(F)cc1F
2. C[C@@H](n1ccc2cc(F)ccc2c1=O)[C@](O)(Cn1cncn1)c1cc(F)ccc1F

# output
1. 1000 ng/mL
2. < 8 ng/mL

###

Hi there, I'd appreciate the recorded MIC50 for every entry that follows.
# System: Cryptococcus neoformans
# Method: Antifungal activity against Cryptococcus neoformans H99 assessed as inhibition of fungal growth incubated for 72 hrs by CLSI protocol based microbroth dilution method
# Type: functional

Completed entries (count: 5):
{"Compound": "C[C@@H](n1ccc2cc(C(F)(F)F)ccc2c1=O)[C@](O)(Cn1cncn1)c1ccc(F)cc1F", "MIC50": "< 0.008 µg/mL"}
{"Compound": "C[C@@H](n1ccc2cc(Cl)ccc2c1=O)[C@](O)(Cn1cnnn1)c1ccc(F)cc1F", "MIC50": "< 0.008 µg/mL"}
{"Compound": "C[C@@H](n1ccc2cc(Br)ccc2c1=O)[C@](O)(Cn1cncn1)c1ccc(F)cc1F", "MIC50": "< 0.008 µg/mL"}
{"Compound": "Cc1ccc2c(=O)n([C@H](C)[C@](O)(Cn3cncn3)c3ccc(F)cc3F)ccc2c1", "MIC50": "< 0.008 µg/mL"}
{"Compound": "C[C@@H](n1ncc2cc(Cl)ccc2c1=O)[C@](O)(Cn1cncn1)c1ccc(F)cc1F", "MIC50": "< 0.008 µg/mL"}

// input: 2 compounds below; output: MIC50 for each
1. C[C@@H](c1ncncc1F)[C@](O)(Cn1cncn1)c1ccc(F)cc1F [VORICONAZOLE]
2. C[C@@H](n1ncc2cn(-c3ccc(F)c(Cl)c3)nc2c1=O)[C@](O)(Cn1cncn1)c1ccc(F)cc1F

# output
1. 0.063 µg/mL
2. > 64 µg/mL

###

# System: Cryptococcus neoformans
# Method: Antifungal activity against Cryptococcus neoformans H99 assessed as inhibition of fungal growth incubated for 72 hrs by CLSI protocol based microbroth dilution method
# Format: functional
Reported property: MIC50

{"Compound": "C[C@@H](n1ncc2cn(-c3ccc(C#N)cc3)nc2c1=O)[C@](O)(Cn1cncn1)c1ccc(F)cc1F", "Target system": "Cryptococcus neoformans", "MIC50": "8 µg/mL"}
{"Compound": "C[C@@H](n1ccc2cc(Cl)ccc2c1=O)[C@](O)(Cn1cncn1)c1cc(F)ccc1F", "Target system": "Cryptococcus neoformans", "MIC50": "< 0.008 µg/mL"}
{"Compound": "C[C@@H](n1ccc2cc(-c3ccccc3)ccc2c1=O)[C@](O)(Cn1cncn1)c1ccc(F)cc1F", "Target system": "Cryptococcus neoformans", "MIC50": "0.5 µg/mL"}
{"Compound": "COc1ccc2c(=O)n([C@H](C)[C@](O)(Cn3cncn3)c3ccc(F)cc3F)ccc2c1", "Target system": "Cryptococcus neoformans", "MIC50": "< 0.008 µg/mL"}
{"Compound": "C[C@@H](n1ccc2cc(OC(F)(F)F)ccc2c1=O)[C@](O)(Cn1cncn1)c1ccc(F)cc1F", "Target system": "Cryptococcus neoformans", "MIC50": "< 0.008 µg/mL"}
{"Compound": "OC(Cn1cncn1)(Cn1cncn1)c1ccc(F)cc1F", "Target system": "Cryptococcus neoformans", "MIC50": "8 µg/mL"}

// input: 5 molecules below; output: MIC50 for each
1. C[C@@H](n1ccc2cc(F)ccc2c1=O)[C@](O)(Cn1cncn1)c1ccc(F)cc1F
2. C[C@@H](n1ncc2cc(Cl)ccc2c1=O)[C@](O)(Cn1cnnn1)c1ccc(F)cc1F
3. C[C@@H](n1cnc2cc(F)ccc2c1=O)[C@](O)(Cn1cnnn1)c1ccc(F)cc1F
4. C[C@@H](n1ncc2cn(-c3ccc(F)c(F)c3)nc2c1=O)[C@](O)(Cn1cncn1)c1ccc(F)cc1F
5. C[C@@H](n1ccc2cc(Cl)ccc2c1=O)[C@](O)(Cn1cncn1)c1ccc(F)cc1F

# output
< 0.008 µg/mL
0.063 µg/mL
4 µg/mL
> 64 µg/mL
< 0.008 µg/mL

// input: 6 molecules below; output: MIC50 for each
1. C[C@@H](n1ncc2cn(-c3ccc(OC(F)(F)F)cc3)nc2c1=O)[C@](O)(Cn1cncn1)c1ccc(F)cc1F
2. C[C@@H](n1ncc2cc(Cl)ccc2c1=O)[C@](O)(Cn1cncn1)c1cc(F)ccc1F
3. C[C@@H](n1cnc2cc(Cl)ccc2c1=O)[C@](O)(Cn1cnnn1)c1ccc(F)cc1F
4. C[C@@H](n1ncc2ccccc2c1=O)[C@](O)(Cn1cncn1)c1ccc(F)cc1F
5. C[C@@H](n1ccc2cc(F)ccc2c1=O)[C@](O)(Cn1cncn1)c1cc(F)ccc1F
6. O[C@@](Cn1cnnn1)(c1ccc(F)cc1F)C(F)(F)c1ccc(-c2ccc(OCC(F)(F)F)cc2)cn1

# output
1. > 64 µg/mL
2. < 0.008 µg/mL
3. 2 µg/mL
4. 0.063 µg/mL
5. < 0.008 µg/mL
6. < 0.008 µg/mL

# input Query (molecule): C[C@@H](n1ncc2cc(Br)ccc2c1=O)[C@](O)(Cn1cncn1)c1ccc(F)cc1F ; field requested: MIC50
# output < 0.008 µg/mL
